B1: Hairpin Ribozyme (parent)
chain: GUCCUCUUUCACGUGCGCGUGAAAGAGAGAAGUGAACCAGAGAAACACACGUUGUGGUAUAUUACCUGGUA

- Variants of: B1
- assay.comment: self-cleavage, relative activity (ratio to wild type); higher = more cleavage; co-transcriptional
assay.readout: self-cleavage

[[record]]
variant_notation = "U8G C50A"
reported_result = 0.227

[[record]]
variant_notation = "G1A U62C"
reported_result = 0.133

[[record]]
variant_notation = "A23U A41G"
reported_result = 0.749

[[record]]
variant_notation = "C18G G19C"
reported_result = 0.804

[[record]]
variant_notation = "C3G C18G"
reported_result = 0.34

[[record]]
variant_notation = "G1A G29U"
reported_result = 0.157

[[record]]
variant_notation = "C4A G42A"
reported_result = 0.111

[[record]]
variant_notation = "U14G A31C"
reported_result = 0.267

[[record]]
variant_notation = "C37A G68U"
reported_result = 0.332

[[record]]
variant_notation = "A11G U62A"
reported_result = 0.154

[[record]]
variant_notation = "C3U U9G"
reported_result = 0.337

[[record]]
variant_notation = "G32C C66A"
reported_result = 0.0957

[[record]]
variant_notation = "A28G G32C"
reported_result = 0.119

[[record]]
variant_notation = "G29U A31G"
reported_result = 0.167

[[record]]
variant_notation = "G21C U58A"
reported_result = 0.577

[[record]]
variant_notation = "A31C A64U"
reported_result = 0.11

[[record]]
variant_notation = "C4A U20G"
reported_result = 0.259

[[record]]
variant_notation = "G21C G34C"
reported_result = 0.992

[[record]]
variant_notation = "C6A A28U"
reported_result = 0.365

[[record]]
variant_notation = "U2G A24C"
reported_result = 0.293

[[record]]
variant_notation = "A31U A36G"
reported_result = 0.151

[[record]]
variant_notation = "G15U A49U"
reported_result = 0.0651

[[record]]
variant_notation = "U14A G42A"
reported_result = 0.108

[[record]]
variant_notation = "A41G U62A"
reported_result = 0.0775

[[record]]
variant_notation = "G17A G69A"
reported_result = 0.306

[[record]]
variant_notation = "A49G U58G"
reported_result = 0.45

[[record]]
variant_notation = "U62A U67G"
reported_result = 0.173

[[record]]
variant_notation = "A44C C66U"
reported_result = 0.107

[[record]]
variant_notation = "U20C A45G"
reported_result = 0.165

[[record]]
variant_notation = "C3G A59C"
reported_result = 0.064

[[record]]
variant_notation = "C46A G51U"
reported_result = 0.146

[[record]]
variant_notation = "U14A G17U"
reported_result = 0.96

[[record]]
variant_notation = "A11C A30C"
reported_result = 0.147

[[record]]
variant_notation = "U52G C66A"
reported_result = 0.189

[[record]]
variant_notation = "U14G A43U"
reported_result = 0.186

[[record]]
variant_notation = "C6G G21U"
reported_result = 0.181

[[record]]
variant_notation = "A44U C50U"
reported_result = 0.252

[[record]]
variant_notation = "A24C U53C"
reported_result = 0.735

[[record]]
variant_notation = "A22U G51C"
reported_result = 0.607

[[record]]
variant_notation = "U9A A49G"
reported_result = 0.395

[[record]]
variant_notation = "G25U G69A"
reported_result = 0.261

[[record]]
variant_notation = "U14C G51U"
reported_result = 1.07

[[record]]
variant_notation = "G25A A35U"
reported_result = 0.39

[[record]]
variant_notation = "U8C U14A"
reported_result = 0.51

[[record]]
variant_notation = "C4A G25U"
reported_result = 0.214

[[record]]
variant_notation = "C6A C48U"
reported_result = 0.158

